Test: Hematology assays after subcutaneous administration in beagle dogs (Example 8)
Type: in vivo
Details: 30 mg/kg subcutaneous days 1, 3, 5, 8, 15, 22, 29
Experimental Endpoint: Neutrophils (%)
Number in %, nothing else.

Neutrophils reading for 830025 (antisense TTTGTAAATCGAAAGC; 3-10-3 cEt gapmer, further chemistry not given here) [compound 830025] : 55

For 830121 (AGAATCAAGCCCTGGC; 3-10-3 cEt gapmer, further chemistry not given here) [compound 830121] the substance record lists Neutrophils as 59

829994 (GGAGGCAGGGCCGCGA; 3-10-3 cEt gapmer, further chemistry not given here) [compound 829994] has a reported Neutrophils of 65

Quick note, Neutrophils for 830037 (antisense CTATTGGCTGATCTGG; 3-10-3 cEt gapmer, further chemistry not given here) [compound 830037] landed at 57

Per the record, 798781 (CGTAAGATTCACAGCA; 3-10-3 cEt gapmer, further chemistry not given here) [compound 798781] has Neutrophils of 56

The reported value for 790615 (CCAATGAGAATGCTTC; 3-10-3 cEt gapmer, further chemistry not given here) [compound 790615] in terms of Neutrophils is 53

The values you see were collected from patent US10517889B2.
